// mortality lookup, one value per entry
Test system: Musca domestica
ASSAY TEXT: Musca domestica test
Format: in vivo
TEST CONDITIONS: 100 ppm; sponge with sugar and compound solution; adults; after 2 days

Lookup: Please list mortality recorded for the compound N#Cc1cc(C2=NCC(c3cccc(C(F)(F)F)n3)(C(F)(F)F)C2)ccc1-n1cncn1 (stereo not shown) [1-126]
Found: 90%

Lookup: Respond only with mortality recorded for N#Cc1cc(C2=NCC(c3cc(Cl)nc(Cl)c3)(C(F)(F)F)C2)cnc1-n1cncn1 (stereo not shown) [1-66]
Found: 80%

Lookup: Give me measured mortality, please, for this compound: N#Cc1cc(C2=NCC(c3cccc(C(F)(F)F)c3F)(C(F)(F)F)C2)ccc1-n1cncn1 (stereo not shown) [1-19]
Found: 90%

Lookup: Answer with the recorded mortality of N#Cc1cc(C2=NCC(c3ccnc(C(F)(F)F)c3)(C(F)(F)F)C2)ccc1-n1cncn1 (stereo not shown) [1-21] only.
Found: 80%

Lookup: Write down mortality measured for item N#Cc1cc(C2=NCC(c3cc(Cl)c([N+](=O)[O-])c(Cl)c3)(C(F)(F)F)C2)ccc1-n1cncn1 (stereo not shown) [1-489]
Found: 80%

Lookup: Entry FC(F)(F)C1(c2cc(Cl)nc(Cl)c2)CN=C(c2ccc(-n3cncn3)cc2)C1 (stereo not shown) [1-2] needs its mortality filled in; supply it.
Found: 90%

Lookup: Quick one: give measured mortality for N#Cc1cc(C2=NCC(c3cc(Cl)c4c(c3)OC(F)(F)O4)(C(F)(F)F)C2)ccc1-n1cncn1 (stereo not shown) [1-25]
Found: 90%
